Target: T1, angiopoietin-2 (Ang2) (human, UniProt O15123 68-496, limits assumed)
T1 construct: Plain and biotinylated Ang2 are kept as one molecule; also called rhAng2; recombinant Ang2
T1 sequence (looked up): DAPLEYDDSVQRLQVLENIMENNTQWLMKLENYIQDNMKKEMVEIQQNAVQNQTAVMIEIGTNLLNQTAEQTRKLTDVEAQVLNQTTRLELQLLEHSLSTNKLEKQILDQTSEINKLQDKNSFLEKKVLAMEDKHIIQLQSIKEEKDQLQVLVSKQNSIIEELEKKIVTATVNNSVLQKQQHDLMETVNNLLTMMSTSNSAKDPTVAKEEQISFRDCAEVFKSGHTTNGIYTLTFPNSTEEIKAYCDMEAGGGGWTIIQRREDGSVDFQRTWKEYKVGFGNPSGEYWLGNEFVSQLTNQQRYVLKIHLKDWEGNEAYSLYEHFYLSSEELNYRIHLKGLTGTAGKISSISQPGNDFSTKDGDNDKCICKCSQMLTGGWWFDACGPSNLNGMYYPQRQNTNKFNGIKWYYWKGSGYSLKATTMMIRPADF
Assay: binding of MBP fusion to Ang2
Where no end group is shown, it is not given here. MBP = maltose binding protein (MBP), fused to the peptide
OBSERVATION TYPE: EC50 (nM)

Answered examples (3):
• {MBP}-KSLSLSPGSGGGSMGAQTNFMPMDDDELLLYEQFILQQGLE (other, not shown: large carriers, also: N-terminal MBP fusion, not in chain) [MBP fusion of LM32 variant SEQ ID NO:100] = 0.24
• {MBP}-KSLSLSPGSGGGSMGAQTNFMPMDQDELLLYEQFILQQGLE (other, not shown: large carriers, also: N-terminal MBP fusion, not in chain) [MBP fusion of LM32 variant SEQ ID NO:99] = 0.383
• {MBP}-KSLSLSPGSGGGSMGAQTNFMPMDNDEALLYEQFILQQGLE (other, not shown: large carriers, also: N-terminal MBP fusion, not in chain) [MBP fusion of LM32 variant SEQ ID NO:90] = 0.182

[I] {MBP}-KSLSLSPGSGGGSMGAQTNFMPMDNDEALLYEEFILQQGLE (other, not shown: large carriers, also: N-terminal MBP fusion, not in chain) [MBP fusion of LM32 variant SEQ ID NO:97]
[II] {MBP}-KSLSLSPGSGGGSMGAQTNFMPMDNDELLLYEQFI (other, not shown: large carriers, also: N-terminal MBP fusion, not in chain) [MBP fusion of LM32 variant SEQ ID NO:32]
Query: Which value of EC50 is smaller, the one for I or the one for II ? Write the label of whichever entry you select.
Result: I
(I: 0.426 nM, II: 1.08 nM)

Source of measurements: patent US20170298106A1
